Test Target: Glycogen synthase kinase-3 alpha (Homo sapiens) (UniProt P49840)
Sequence (P49840 whole entry, looked up): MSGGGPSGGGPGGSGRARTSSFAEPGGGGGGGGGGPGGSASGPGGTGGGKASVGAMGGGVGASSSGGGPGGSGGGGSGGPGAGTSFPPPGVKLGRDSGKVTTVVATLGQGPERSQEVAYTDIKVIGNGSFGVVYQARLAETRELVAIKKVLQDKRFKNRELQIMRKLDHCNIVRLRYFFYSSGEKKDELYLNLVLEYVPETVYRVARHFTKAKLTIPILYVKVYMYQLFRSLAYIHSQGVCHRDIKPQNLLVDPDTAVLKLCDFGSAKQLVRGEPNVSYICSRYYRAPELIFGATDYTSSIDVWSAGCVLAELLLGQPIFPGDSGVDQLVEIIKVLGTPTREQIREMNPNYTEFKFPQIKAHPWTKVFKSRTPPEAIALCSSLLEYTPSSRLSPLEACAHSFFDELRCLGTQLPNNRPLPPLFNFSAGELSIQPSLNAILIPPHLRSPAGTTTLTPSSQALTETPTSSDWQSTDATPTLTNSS
Method: concentration-response blocking of human GSK3A – biochemical, luminescence, cell-free homogeneous, retest, dose response (AID 463203)
Cond: GSK-3 alpha enzyme, ADP-Glo luminescence, 60 min
Activity calls are given as the source filed them.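 How the source made its calls: active means more than half of replicate measurements showing over 20% loss of kinase signal relative to plate controls; inconclusive means some but at most half of replicates over 20% loss; inactive means no replicate over 20% signal loss.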
Entry note: the call must match one of YES (active), NO (inactive)

For orientation, consider the following solved cases.
1. O=C1c2ccccc2-c2onc3ccc(NCc4ccco4)c1c23 | NO
2. CCCC(=O)NC(=S)Nc1cccc(C(C)=O)c1 | NO
3. CC1(C)Cc2c(sc3nn[nH]c(=O)c23)CO1 | NO
4. O=C(NCCc1csc(-c2ccccc2)n1)c1ccc(Br)o1 | YES
5. Cc1cccc(-c2nnc3n2N=C(c2ccccc2)CS3)c1 | NO
6. O=C(Nc1ccccc1N1CCOCC1)c1cnccn1 | YES

Lab note: next compound to report on.
Per the records of this test, what outcome belongs to Cc1c(C(=O)OC(C)C)[nH]c2c1C(=O)CC(C)(C)C2 ?
NO

* * *

Test Target: Glycogen synthase kinase-3 alpha (Homo sapiens)
Method: concentration-response blocking of human GSK3A – biochemical, luminescence, cell-free homogeneous, retest, dose response (AID 463203);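 active = more than half of replicate measurements showing over 20% loss of kinase signal relative to plate controls; inconclusive = some but at most half of replicates over 20% loss; inactive = no replicate over 20% signal loss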
Cond: GSK-3 alpha enzyme, ADP-Glo luminescence, 60 min
Entry note: the call must match one of 1 (yes) (active), 0 (no) (inactive)

Per the records of this test, what outcome belongs to O=c1[nH]nc(SCCS(=O)(=O)c2ccc(F)cc2)n1-c1ccccc1 ?
1 (yes)

* * *

Test Target: Glycogen synthase kinase-3 alpha (Homo sapiens) (UniProt P49840)
Method: concentration-response blocking of human GSK3A – biochemical, luminescence, cell-free homogeneous, retest, dose response (AID 463203)
Cond: GSK-3 alpha enzyme, ADP-Glo luminescence, 60 min
Active and inactive are the calls of the source.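 Rule for the calls: active = more than half of replicate measurements showing over 20% loss of kinase signal relative to plate controls; inconclusive = some but at most half of replicates over 20% loss; inactive = no replicate over 20% signal loss.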
Entry note: the call must match one of T for active, F for inactive

For orientation, consider the following solved cases.
1) CC1CCN(Cc2c(C(=O)N/N=C/c3cccc(Cl)c3)nnn2-c2nonc2N)CC1 | T
2) NC(=O)c1cn(-c2ccccc2)nc1-c1cccnc1 | F
3) O=C(/C(=N/N=C/c1ccc(O)c(O)c1)c1ccccc1)c1ccccc1 | F
4) O=C(N/N=C/c1ccccn1)c1cccc(NC(=O)c2ccccc2Cl)c1 | T
5) NC(=O)c1cccc(S(=O)(=O)N2CC(c3ccccc3)CC2=O)c1 (stereo unspecified) | F

Lab note: next compound to report on.
Per the records of this test, what outcome belongs to Cc1cnn(-c2cc(N/N=C/c3ccccc3)ncn2)c1 ?
F

* * *

Test Target: Glycogen synthase kinase-3 alpha (Homo sapiens) (UniProt P49840)
Method: concentration-response blocking of human GSK3A – biochemical, luminescence, cell-free homogeneous, retest, dose response (AID 463203)
Cond: GSK-3 alpha enzyme, ADP-Glo luminescence, 60 min
Activity calls are given as the source filed them.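 Rule for the calls: active = more than half of replicate measurements showing over 20% loss of kinase signal relative to plate controls; inconclusive = some but at most half of replicates over 20% loss; inactive = no replicate over 20% signal loss.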
Measurement Kind: AC50

Reported AC50, compound O=C1CCCN1CCCNc1ncccc1[N+](=O)[O-] : ____
> 30 µM (inactive)

Reported AC50, compound Nc1nc(NCCOCCO)nc(N2CCCCCC2)c1[N+](=O)[O-] : ____
26.4 µM

Reported AC50, compound O=C(Nc1sc2c(c1C(=O)O)CCC2)c1cccs1 : ____
> 30 µM (inactive)

Reported AC50, compound O=C(Nc1cc(F)cc(F)c1)c1ccc(NCCCN2CCCCCC2)c([N+](=O)[O-])c1 : ____
> 30 µM (inactive)
